Sourced from PubChem BioAssay (NCI)

# System: SW-620 colon
# assay: NCI tumour cell line growth inhibition, 48 h
For each record, write down the corresponding GI50.

Input: # value lookup — system SW-620 colon, readout GI50, item CN1CCc2nc3sc(C(N)=O)c(N)c3c(-c3cccs3)c2C1
Output: 4020 nM

Input: What reported GI50 corresponds to COc1ccc2c(c1)C(=O)c1c-2c(OCCN(C)C)nc2ccccc12 on SW-620 colon?
Output: 823 nM

Input: Notebook: pull reported GI50 for SW-620 colon, entry C[C@@H]1O[C@@H](O[C@@H]2[C@@H](O)[C@H](OCCc3ccc(O)c(O)c3)O[C@H](CO)[C@H]2OC(=O)/C=C/c2ccc(O)c(O)c2)[C@H](O)[C@H](OC2OC[C@](O)(CO)[C@H]2O)[C@H]1O (stereo partly drawn)
Output: 22700 nM

Input: GI50 of COc1cc2c(cc1F)C(c1ccccc1Cl)=Nc1c(n[nH]c1C)N2 on SW-620 colon?
Output: 486 nM

Input: # value lookup — system SW-620 colon, readout GI50, item COc1cc(-c2nn(-c3cccc(NC(=O)CCN4CCN(Cc5ccccc5)CC4)c3)cc2-c2ccncc2)ccc1Cl
Output: 490 nM

Input: Fill in the recorded GI50 for this molecule, with SW-620 colon as test system: CCOC(=O)c1cc2c(cc1Cl)SC(=Nc1ccccc1)N(S(=O)(=O)c1ccc(Br)s1)S2(=O)=O
Output: 16600 nM

Input: Return GI50 measured with SW-620 colon given this molecule: Oc1c(-c2cc(C(F)(F)F)[nH]n2)cc(Cl)c(OCc2ccc(Cl)cc2)c1-c1ccc(Cl)c(C(F)(F)F)c1
Output: 298 nM

Input: Recorded GI50 for C[n+]1c2ccccc2nc2c(N)cc(N)cc21 with SW-620 colon, please?
Output: 10700 nM

---

# Test system: T-47D breast
# assay: NCI tumour cell line growth inhibition, 48 h
Task for the reader: assign each of the following compounds its reported TGI.

Input: Report TGI for COc1ccc2c(-c3ccnc(Nc4cccc(OC(F)(F)F)c4)n3)cnn2n1 please.
Output: 6.56 µM

Input: So what does the record say about TGI for CN1CCN(c2ccc3c(c2)NCC(=O)N3)CC1 ?
Output: > 100 µM

Input: What measured TGI goes with CCc1c(C)nc2sc3c(N)ncnc3c2c1C ?
Output: > 25 µM

Input: Looking for the measured TGI of COc1cc(CNc2nc3ccccc3nc2C(=O)O)cc(OC)c1OC , can you help?
Output: > 100 µM

Input: Item under review: C=CCOc1ccc(C2C(C(=O)OC)C(=O)CC(O)(c3ccccc3)C2C(=O)OC)cc1OC (stereo not drawn) . Reported TGI?
Output: 46.9 µM

Input: What value of TGI has been reported for the following compound? C[C@@H]1O[C@@H](O[C@@H]2[C@@H](O)[C@H](OCCc3ccc(O)c(O)c3)O[C@H](CO)[C@H]2OC(=O)/C=C/c2ccc(O)c(O)c2)[C@H](O)[C@H](OC2OC[C@](O)(CO)[C@H]2O)[C@H]1O (stereo partly drawn)
Output: > 100 µM

Input: Recorded TGI for CC(C)/C(Cl)=N/OC(=O)Nc1ccc(Cl)c(Cl)c1 , please?
Output: 12.2 µM

Input: Which TGI value belongs to C=C(C)[C@@H]1CC[C@]2(C(=O)OC)CC[C@]3(C)[C@H](CC[C@@H]4[C@@]5(C)CC[C@H](O)C(C)(C)[C@@H]5CC[C@]43C)[C@@H]12 ?
Output: 34 µM

Input: Record request: TGI value, item CO/N=C1/c2sccc2[C@H](NC(=O)C(Cc2ccccc2)NC(=O)OC(C)(C)C)[C@@H]1O (stereo partly drawn)
Output: > 100 µM

Input: Please give the measured TGI for this compound: COc1cccc(Oc2ccccc2NC(=O)CNC(=O)c2cccc3ccccc23)c1
Output: 17.6 µM

Input: So what's the measured TGI for this one? NC(Cc1ccc(S(=O)(=O)O)cc1)C(=O)NC(Cc1ccc(S(=O)(=O)O)cc1)C(=O)NC(Cc1ccc(S(=O)(=O)O)cc1)C(=O)NC(Cc1ccc(S(=O)(=O)O)cc1)C(=O)O (stereo not drawn)
Output: > 100 µM

Input: May I ask what TGI has been recorded for CN(CCCNC(=O)c1cc(-c2ccccc2)nc2ccccc12)CCCNC(=O)c1cc(-c2ccccc2)nc2ccccc12 ?
Output: 9.92 µM

Input: Need TGI of CNNC(=NS(=O)(=O)c1cc(C#N)c(NNC)cc1S)NNC , thanks.
Output: > 10 µM

Input: // lookup TGI for COc1ccc(NC(=O)C(=O)/C=C(\O)c2ccccc2)cc1
Output: > 10 µM

Input: Data request, read-out TGI, for O=c1[nH]c(Nc2nc3ccccc3[nH]2)nc(O)c1Cc1ccccc1
Output: > 100 µM

Input: Give the measured TGI of Nc1ncnc2c1ncn2[C@@H]1O[C@H](COC(c2ccccc2)(c2ccccc2)c2ccccc2)[C@@H](OC(=S)Oc2ccccc2)[C@@H]1F .
Output: 52.3 µM

Input: What value of TGI has been reported for the following compound? OC(c1cccnc1Cl)c1nc2ccccc2c2ccnc(Cl)c12 (stereo not drawn)
Output: > 100 µM

Input: # input compound: O=c1[nH]nc(-c2ccccc2)n1O ; wanted: its TGI
Output: > 100 µM

---

# Test system: SNB-75 CNS
# assay: NCI tumour cell line growth inhibition, 48 h
readout.name: GI50

Input: Form entry - test system: SNB-75 CNS; read-out: GI50; compound: COc1cc(C(=O)c2cc(C)c3[nH]c4ccc(O)cc4c3c2C)cc(OC)c1OC
Output: < 0.01 µM

Input: What measured GI50 is associated with CC(C)C[C@H](NC(=O)CCn1ccc2ccccc2c1=O)B(O)O on SNB-75 CNS?
Output: 2.94 µM

Input: Given the entry C=CCc1cc(Nc2c3ccc(Cl)cc3nc3ccc(OC)cc23)cc(CN(CC)CC)c1O , what GI50 was observed with SNB-75 CNS?
Output: 3.85 µM

Input: Test system SNB-75 CNS; read-out GI50; what value for O=C(CN1N=C(c2ccc(F)cc2)CCC1=O)Nc1nc2ccccc2s1 ?
Output: 17.9 µM

Input: Reported GI50 for SNB-75 CNS, given C[n+]1c2ccccc2nc2c(N)cc(N)cc21 ?
Output: 5.2 µM

Input: Under SNB-75 CNS: GI50 value of N/C(=N\OC(=O)c1ccccc1)C(Cc1ccccc1)C(=O)NOC(=O)c1ccccc1 (stereo unspecified) ?
Output: 1.62 µM

Input: Provide the documented GI50 with SNB-75 CNS as the system for COc1ccc2c(c1)C(=O)c1c-2c(OCCN(C)C)nc2ccccc12
Output: 7.62 µM

Input: Param readout = GI50; param system = SNB-75 CNS; param query = CCN1C(=O)N(CC)C2C1NN=c1s/c(=C\c3ccc(F)cc3)c(=O)n12 (stereo unspecified) ; response: value
Output: 0.0474 µM

Input: Provide value of GI50 for this record tested with SNB-75 CNS: O=Nc1c(-c2c(O)[nH]c3ncccc23)[nH]c2ccccc12
Output: 2.56 µM

Input: Find the measured GI50: item COc1cc(C(=O)Nc2cc(O)c(CC=C(C)C)c(O)c2)cc2c1O[C@]1(C)CC[C@@H](O)C(C)(C)[C@H]1C2 , target or system SNB-75 CNS.
Output: 0.33 µM

Input: Given the entry COc1ccc2c(-c3ccnc(Nc4cccc(OC(F)(F)F)c4)n3)cnn2n1 , what GI50 was observed with SNB-75 CNS?
Output: 0.806 µM

---

Would you mind telling me the reported TGI of each entry?
# Tested on: CAKI-1 renal
# assay: NCI tumour cell line growth inhibition, 48 h

Input: For the compound shown here, COc1cc(C2(C)SCCCS2)cc(OC)c1OC , give the reported TGI.
Output: > 100 µM

Input: Fill in: TGI of CCN(CC)C1Oc2cc3c(cc2C(c2cccc(OC)c2OC)C1C)OCO3 (stereo unspecified) is ___
Output: 14.2 µM

Input: I would be grateful if you could share the reported TGI for Nc1nc(N)c(CCCCc2ccccc2)c(N)n1 .
Output: > 100 µM

Input: # get_value(readout='TGI', item= NC(Cc1ccc(S(=O)(=O)O)cc1)C(=O)NC(Cc1ccc(S(=O)(=O)O)cc1)C(=O)NC(Cc1ccc(S(=O)(=O)O)cc1)C(=O)NC(Cc1ccc(S(=O)(=O)O)cc1)C(=O)O (stereo unspecified) )
Output: > 100 µM

Input: Entry Clc1ccc(C2ON=C(c3ccccc3)N2C23CC4CC(CC(C4)C2)C3)cc1 (stereo unspecified) has what TGI?
Output: > 10 µM

Input: Requested field: TGI. Item: COc1cc2c(cc1F)C(c1ccccc1Cl)=Nc1c(n[nH]c1C)N2
Output: 14.7 µM

---

# System: A498 renal
# assay: NCI tumour cell line growth inhibition, 48 h; in the data active = GI50 below about 0.43 µM; inactive = the rest
I would appreciate it if you answered using one of these outcomes: Y for active, N for inactive

Input: Hello, I am checking results. What call was entered for COc1cc(-c2nn(-c3cccc(NC(=O)CCN4CCN(Cc5ccccc5)CC4)c3)cc2-c2ccncc2)ccc1Cl ?
Output: N

Input: # lookup: test call for COc1ccc(Nc2ccnc(N3CCN(c4ccnc5cc(Cl)ccc45)CC3)n2)cc1
Output: Y

Input: Outcome? O=C(CN1N=C(c2ccc(F)cc2)CCC1=O)Nc1nc2ccccc2s1
Output: N

Input: Just curious, what result did CC(C)C[C@H](NC(=O)CCn1ccc2ccccc2c1=O)B(O)O get here?
Output: N

Input: What did the test return for c1cc(N2CCN(c3ccc(C4=NCCCN4)cc3)CC2)ccc1C1=NCCCN1 ?
Output: N

Input: Record lookup: outcome of this test for O=C1C(OCCOc2ccccc2)=C(OCCOc2ccccc2)C(=O)c2ccccc21 ?
Output: N

Input: Record lookup: outcome of this test for Cc1cc(C)c(C2CNCc3cc4c(cc32)CNCC4c2c(C)cc(C)cc2C)c(C)c1 (centres undefined) ?
Output: N

Input: // param item: CC1c2ccccc2CCN1c1ccc(CO)c(Cl)c1 (centres undefined) ; yields the recorded call
Output: Y

Input: Please share the test call associated with C[C@@H]1Cc2cc(O)ccc2[C@H]2CC[C@]3(C)/C(=C/COCCN(C)C)CC[C@H]3[C@H]12 (tested in a mixture with another compound) .
Output: N

Input: Just curious, what result did Nc1n[nH]c2ccc([C@@H]3Nc4cc5c(cc4[C@H]4C6CCC(C6)[C@@H]34)C(=O)NC5)cc12 (some centres undefined) get here?
Output: Y

Input: Status in this test for CCOC(=O)c1cc2c(cc1Cl)SC(=Nc1ccccc1)N(S(=O)(=O)c1ccc(Br)s1)S2(=O)=O ?
Output: N

Input: Could you check what this test reported for COc1ccc(Nc2ccc([N+](=O)[O-])cc2[N+](=O)[O-])cc1CN(CCCl)CCCl ?
Output: N

Input: Hi, do you know how C[CH2][Hg][S]c1ccccc1C(=O)O came out in this test?
Output: N

Input: Which outcome was entered for the compound CCN1C(=O)N(CC)C2C1NN=c1s/c(=C\c3ccc(F)cc3)c(=O)n12 (centres undefined) in this test?
Output: Y
